assayComment: Pharmacokinetic evaluation in blood by LC-MS/MS
Type: in vivo, female NOD/SCID mice
measurementConditions: female, NOD/SCID, mouse, po, 100 umol/kg; per os, 100 μmol/Kg, blood, ± S.D.; read-out: AUC0-24

[
  {
    "molecule": "Cc1[nH]c(/C=C2\\C(=O)Nc3ccc(F)cc32)c(C)c1C(=O)NCCN1CCNCC1 [SAP]",
    "AUC(0-t)": "2.5 µM·h"
  }
]

* * *

targetEntity: FLT3 (Homo sapiens)
Construct: 571–993
Sequence (P36888 571-993): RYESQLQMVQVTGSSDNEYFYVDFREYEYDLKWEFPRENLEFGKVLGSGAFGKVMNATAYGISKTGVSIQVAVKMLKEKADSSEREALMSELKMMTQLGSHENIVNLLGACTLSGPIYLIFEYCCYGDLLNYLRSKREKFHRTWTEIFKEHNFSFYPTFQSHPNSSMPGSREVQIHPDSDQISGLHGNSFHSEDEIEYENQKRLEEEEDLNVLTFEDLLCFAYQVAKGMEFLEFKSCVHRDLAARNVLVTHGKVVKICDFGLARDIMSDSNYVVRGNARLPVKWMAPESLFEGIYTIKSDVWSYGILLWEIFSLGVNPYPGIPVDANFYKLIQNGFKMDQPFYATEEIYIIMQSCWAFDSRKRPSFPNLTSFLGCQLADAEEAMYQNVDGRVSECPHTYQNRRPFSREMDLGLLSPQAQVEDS
assayComment: Biochemical tyrosine kinase assay (trans-phosphorylation, GST-fusion protein)
measurementConditions: in vitro kinase activity, ± SD
pIC50: −log10 of the molar value.
measurementKind: pIC50

[
  {
    "compound": "Cc1[nH]c(/C=C2\\C(=O)Nc3ccc(F)cc32)c(C)c1C(=O)NCCN1CCNCC1 [SAP]",
    "measurementKind": "pIC50",
    "observedValue": 7.16
  }
]

* * *

Measured IC50, listed per entry.
System: SKBR3
assayComment: MTT cytotoxicity assay
Type: cell-based
measurementConditions: Homo sapiens, SK-BR-3

[
  {
    "molecule": "CCN(CC)CCNC(=O)c1c(C)[nH]c(/C=C2\\C(=O)Nc3ccc(F)cc32)c1C [sunitinib, reference compound]",
    "IC50, µM": 13.2
  },
  {
    "molecule": "Cc1[nH]c(/C=C2\\C(=O)Nc3ccc(F)cc32)c(C)c1C(=O)NCCN1CCNCC1",
    "IC50, µM": 15.5
  }
]

* * *

assayComment: Pharmacokinetic evaluation in blood by LC-MS/MS
Assay type: in vivo, female NOD/SCID mice
measurementConditions: female, NOD/SCID, mouse, po, 100 umol/kg; per os, blood, ± S.D.
measurementKind: Cmax (nM)

[
  {
    "compound": "Cc1[nH]c(/C=C2\\C(=O)Nc3ccc(F)cc32)c(C)c1C(=O)NCCN1CCNCC1 [SAP]",
    "measurementKind": "Cmax",
    "observedValue": 200
  }
]

* * *

assayComment: Pharmacokinetic evaluation in blood by LC-MS/MS
Type: in vivo, female NOD/SCID mice
measurementConditions: female, NOD/SCID, mouse, ip, 100 umol/kg; intraperitoneal, blood, ± S.D.

[
  {
    "givenSmiles": "Cc1[nH]c(/C=C2\\C(=O)Nc3ccc(F)cc32)c(C)c1C(=O)NCCN1CCNCC1",
    "Cmax": "27 µM"
  }
]

* * *

targetEntity: RET (Homo sapiens)
Construct: 658-end
Sequence (P07949 658-1063 limits assumed): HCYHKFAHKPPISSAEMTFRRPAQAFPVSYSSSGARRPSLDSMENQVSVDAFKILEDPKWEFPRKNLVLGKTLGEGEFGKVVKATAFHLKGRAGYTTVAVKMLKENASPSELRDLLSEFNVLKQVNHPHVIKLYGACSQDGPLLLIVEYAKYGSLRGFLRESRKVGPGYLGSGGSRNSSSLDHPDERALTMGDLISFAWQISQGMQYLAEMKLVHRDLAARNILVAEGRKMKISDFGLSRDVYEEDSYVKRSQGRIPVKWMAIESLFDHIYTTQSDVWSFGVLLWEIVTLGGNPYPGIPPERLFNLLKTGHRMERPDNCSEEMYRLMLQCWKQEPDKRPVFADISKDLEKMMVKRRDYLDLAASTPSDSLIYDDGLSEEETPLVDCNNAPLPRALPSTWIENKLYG
assayComment: Biochemical tyrosine kinase assay (trans-phosphorylation, GST-fusion protein)
measurementConditions: in vitro kinase activity, ± SD
pIC50: −log10 of the molar value.

[
  {
    "givenSmiles": "Cc1[nH]c(/C=C2\\C(=O)Nc3ccc(F)cc32)c(C)c1C(=O)NCCN1CCNCC1",
    "pIC50": 6.99
  }
]

* * *

targetEntity: VEGFR-2, PDGFR-β, KIT, FLT3 and RET
assayComment: Biochemical tyrosine kinase assay, RTK panel summary
measurementConditions: range over the RTK targets of sunitinib; read-out: IC50 over most of the RTKs
pIC50: −log10 of the molar value.

[
  {
    "givenSmiles": "Cc1[nH]c(/C=C2\\C(=O)Nc3ccc(F)cc32)c(C)c1C(=O)NCCN1CCNCC1",
    "targetEntity": "VEGFR-2, PDGFR-β, KIT, FLT3 and RET",
    "pIC50": "6.99 to 7.21"
  }
]
